Target: F protein of human metapneumovirus strain JPS05-21 (type B2), on infectious virus (human metapneumovirus, strain JPS05-21 …)
Assay: cell-based or functional assay
Measured parameter: IC50, neutralizing activity (hMPV infection of LLC-MK2 cells)

EV046124 (antibody, human IgG1, lambda, V domains shown) VH: QVQLVQSGTELKKPGASVKVSCKASGYTFTDYSMHWLRQAPGESLEWMGWVNGGPLDTKYSPTFQDRVSFSRDVFATTAYMDLSSLGPEDTAVYYCARGWGITAYRGDAFDLWGQGTMVIVSS VL: SFVLTQPPSVSVAPGKSARITCGASNIESKSVHWYQQKPGQAPVVVVYDDDDRPSGIPERFSGSNSGNTATLIINRVEVGDEADYYCQVWDSTSDMYVFGAGTKVTVLG | 0.24 µg/mL

Shift focus to the following entry.
Prompt: Assign IC50, neutralizing activity (hMPV infection of LLC-MK2 cells) to the following record: EV046147 (antibody, human IgG1, lambda, V domains shown) VH: QVQLVQSGAEVKKPGASVKVSCKASGYTFSVYGISWVRQAPGHGLEWMGWISAYNGDRGYAQKVQGRITMTTDTSASTAYMELRSLTSDDTAVYYCATTSSGVPGIYWGQGSLVTVSS VL: SYALVQPPSVSVSPGQTARITCFGPALPKKYAYWYQHKSGQAPMLVIYEDTKRPSGIPQRFSGSTSGATATLTIRGAQVEDEADYYCYSTDSSGHERVFGGGTKLTVLG
Completion: 0.27 µg/mL
